These data points were gathered from patent US8003649B2.

# targetOrSystem: Androgen Receptor (AR) (Homo sapiens, UniProt P10275, T878A)
# Construct: cell based immuno-fluorescence assay using the LNCaP prostate epithelial cell line; endogenous in cells; host or cells: LNCaP clone FGC (ATCC CRL-1740)
# Sequence (P10275 1-920 T878A): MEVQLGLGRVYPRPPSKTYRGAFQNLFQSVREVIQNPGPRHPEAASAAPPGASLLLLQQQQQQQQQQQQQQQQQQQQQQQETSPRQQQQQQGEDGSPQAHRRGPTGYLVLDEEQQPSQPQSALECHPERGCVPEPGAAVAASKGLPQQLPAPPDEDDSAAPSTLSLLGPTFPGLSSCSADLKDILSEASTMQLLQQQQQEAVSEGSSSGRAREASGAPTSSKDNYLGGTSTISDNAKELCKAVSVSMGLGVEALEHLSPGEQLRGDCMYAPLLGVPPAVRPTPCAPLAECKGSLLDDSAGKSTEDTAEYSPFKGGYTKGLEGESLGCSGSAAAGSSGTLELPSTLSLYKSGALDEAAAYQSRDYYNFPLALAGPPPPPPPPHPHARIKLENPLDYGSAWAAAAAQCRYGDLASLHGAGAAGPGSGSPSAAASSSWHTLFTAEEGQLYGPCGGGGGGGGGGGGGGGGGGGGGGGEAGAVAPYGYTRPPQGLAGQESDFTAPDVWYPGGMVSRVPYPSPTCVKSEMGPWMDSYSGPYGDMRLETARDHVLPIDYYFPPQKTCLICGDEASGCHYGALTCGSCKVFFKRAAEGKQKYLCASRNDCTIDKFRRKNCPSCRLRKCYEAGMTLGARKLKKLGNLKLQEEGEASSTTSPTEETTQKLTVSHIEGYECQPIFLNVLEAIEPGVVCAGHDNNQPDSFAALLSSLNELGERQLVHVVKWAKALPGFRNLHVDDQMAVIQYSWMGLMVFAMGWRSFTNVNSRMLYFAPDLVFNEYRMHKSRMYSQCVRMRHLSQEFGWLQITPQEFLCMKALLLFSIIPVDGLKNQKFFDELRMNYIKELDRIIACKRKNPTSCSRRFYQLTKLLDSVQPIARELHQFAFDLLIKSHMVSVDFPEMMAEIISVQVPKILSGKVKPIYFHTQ
# experimentalDetails: LNCaP Androgen Receptor Down-regulation Cell Assay (immunofluorescence end point)
# Format: cell-based
# setupConditions: LNCaP prostate carcinoma cells, compound incubation 20-22 hours, 50% reduction of the AR signal; read-out: Androgen Receptor Down-regulation Assay (a) IC50/μM
Binarize DC50 at 1 µM; below is TRUE, at or above is FALSE.

Task: Confirm or reject: DC50 of FC(F)(F)c1nnc2ccc(N3CCC(Oc4ncccc4Br)CC3)nn12 [Example 723] lies strictly below 1 µM
Output: TRUE

Task: Confirm or reject: DC50 of O=C(c1cccc(C2CCN(c3ccc4nnc(C(F)(F)F)n4n3)CC2)c1)N1CCOCC1 [Example 648] lies strictly below 1 µM
Output: FALSE

Task: Confirm or reject: DC50 of N#Cc1ccc(CN2CCCN(c3ccc4nnc(C(F)(F)F)n4n3)CC2)cc1 [Example 170] lies strictly below 1 µM
Output: TRUE

Task: Confirm or reject: DC50 of C[C@H](c1ccc(F)cc1)N1CCN(c2ccc3nnc(C(F)(F)F)n3n2)CC1 [Example 308] lies strictly below 1 µM
Output: FALSE

Task: Confirm or reject: DC50 of COc1ccccc1CN1CCCN(c2ccc3nnc(C(F)(F)F)n3n2)CC1 [Example 167] lies strictly below 1 µM
Output: FALSE

Task: Confirm or reject: DC50 of Nc1ccc(C2CCN(c3ccc4nnc(C(F)(F)F)n4n3)CC2)cc1 [Example 615] lies strictly below 1 µM
Output: TRUE
